Listing: pIC50 of selected molecules
Target Of Assay: IRAK4 (Homo sapiens (Human))
Assay Overview: IRAK4 kinase activity, IMAP fluorescence polarization assay
Format: biochemical
Test Settings: 100 μM ATP, 0.5 nM GST tagged IRAK4; read-out: IRAK4 IC50
Structures can show the parent of a compound that is named as a salt.
Please keep in mind that pIC50 is minus log10 of the molar concentration; only the number is needed.

Use these answered entries as a reference point.
[
  {
    "Molecule": "O=c1[nH]c(N2CC3(COC3)C2)nc(N[C@@H]2C[C@H](CO)[C@@H](O)[C@H]2O)c1-c1nc2ccccc2s1 [Example 13]",
    "Measured Result": 8.05
  },
  {
    "Molecule": "O=c1[nH]c(NC2CC(F)(F)C2)nc(N[C@@H]2C[C@H](CO)[C@@H](O)[C@H]2O)c1-c1nc2ccccc2s1 [Example 9]",
    "Measured Result": 6.49
  },
  {
    "Molecule": "O=c1[nH]c(NC2CCCC2)nc(N[C@@H]2C[C@H](CO)[C@@H](O)[C@H]2O)c1-c1nc2ccccc2s1 [Example 4]",
    "Measured Result": 7.04
  },
  {
    "Molecule": "O=c1[nH]c(N2CCOCC2)nc(N[C@@H]2CCCNC2)c1-c1nc2c(C3CC3)nccc2s1 [Example 111]",
    "Measured Result": 8.05
  },
  {
    "Molecule": "O=c1[nH]c(N2CCOCC2)nc(N[C@@H]2CCNC2)c1-c1nc2ccccc2s1 [Example 87]",
    "Measured Result": 7.44
  }
]

Value lookup for pIC50; key = O=c1[nH]c(N2CCOCC2)nc(N[C@@H]2CCCNC2)c1-c1nc2cc(F)ccc2s1 [Example 97, hydrochloride]
8.08

Value lookup for pIC50; key = NC1CCCC(Nc2nc(N3CCOCC3)[nH]c(=O)c2-c2nc3ccccc3s2)C1 (centres unmarked) [Example 90]
6.59

Value lookup for pIC50; key = Cc1cccc2nc(-c3c(N[C@@H]4CCCNC4)nc(N4CCOCC4)[nH]c3=O)sc12 [Example 340]
6.24

----------
Target Of Assay: IRAK4 (Homo sapiens (Human), UniProt Q9NWZ3)
Sequence (Q9NWZ3 whole entry): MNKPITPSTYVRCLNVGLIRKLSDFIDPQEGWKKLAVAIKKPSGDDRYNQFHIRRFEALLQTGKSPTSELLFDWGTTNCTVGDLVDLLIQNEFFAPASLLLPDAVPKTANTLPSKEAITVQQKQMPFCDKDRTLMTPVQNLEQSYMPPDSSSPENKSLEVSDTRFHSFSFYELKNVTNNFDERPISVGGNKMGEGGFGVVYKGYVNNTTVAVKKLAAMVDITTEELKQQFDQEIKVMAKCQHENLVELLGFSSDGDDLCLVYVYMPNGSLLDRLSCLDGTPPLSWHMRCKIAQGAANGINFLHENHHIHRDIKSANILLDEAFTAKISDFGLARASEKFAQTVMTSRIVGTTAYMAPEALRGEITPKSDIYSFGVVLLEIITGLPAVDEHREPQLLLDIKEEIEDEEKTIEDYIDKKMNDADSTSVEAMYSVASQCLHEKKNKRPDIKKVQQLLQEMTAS
Assay Overview: IRAK4 kinase activity, IMAP fluorescence polarization assay
Type: biochemical
Test Settings: 100 μM ATP, 0.5 nM GST tagged IRAK4; read-out: IRAK4 IC50
Listing: IC50 of selected compounds
State just the number; it will be interpreted in nM.

[
  {
    "Compound": "O=c1[nH]c(N2CCOCC2)nc(N[C@@H]2CCCCNC2)c1-c1nc2ccccc2s1 [Example 104]",
    "Measured Result": 79
  }
]

Value lookup for IC50; key = O=c1[nH]c(N2CCC(F)(F)CC2)nc(N[C@@H]2C[C@H](CO)[C@@H](O)[C@H]2O)c1-c1nc2ccccc2s1 [Example 27]
135

Value lookup for IC50; key = CC(C)[C@H]1C[C@@H](Nc2nc(N3CCOCC3)[nH]c(=O)c2-c2nc3ccccc3s2)[C@H](O)[C@@H]1O [Example 42]
72

Value lookup for IC50; key = O=c1[nH]c(N2CCOCC2)nc(N[C@@H]2CCCNC2)c1-c1nc2cc(C(F)(F)F)ccc2s1 [Example 337]
70

Value lookup for IC50; key = CC(C)Nc1nc(N[C@@H]2C[C@H](CO)[C@@H](O)[C@H]2O)c(-c2nc3ccccc3s2)c(=O)[nH]1 [Example 5]
151

----------
Target Of Assay: IRAK4 (Homo sapiens (Human), UniProt Q9NWZ3)
Assay Overview: IRAK4 kinase activity, IMAP fluorescence polarization assay
Format: biochemical
Test Settings: 100 μM ATP; read-out: IRAK4 IC50
Listing: pIC50 of selected compounds
Please keep in mind that pIC50 is minus log10 of the molar concentration; only the number is needed.

Use these answered entries as a reference point.
[
  {
    "Compound": "CO[C@H]1CCN(c2nc(N[C@@H]3CCCNC3)c(-c3ccc4ccccc4n3)c(=O)[nH]2)C1 [Example 178]",
    "Target Of Assay": "IRAK4 (Homo sapiens (Human), UniProt Q9NWZ3)",
    "pIC50": 7.46
  },
  {
    "Compound": "Cc1cc(C2CCN(c3nc(N[C@@H]4CCCNC4)c(-c4ccc5ccccc5n4)c(=O)[nH]3)CC2)[nH]n1 [Example 192]",
    "Target Of Assay": "IRAK4 (Homo sapiens (Human), UniProt Q9NWZ3)",
    "pIC50": 7.18
  },
  {
    "Compound": "O=c1[nH]c(N2CCOCC2)nc(N[C@@H]2CCCNC2)c1-c1nc(-c2ccccc2F)cs1 [Example 201]",
    "Target Of Assay": "IRAK4 (Homo sapiens (Human), UniProt Q9NWZ3)",
    "pIC50": 7.22
  }
]

Value lookup for pIC50; key = O=c1[nH]c(N2CCOCC2)nc(N[C@@H]2CCCNC2)c1-c1nc(-c2ccccn2)cs1 [Example 207]
7.68

Value lookup for pIC50; key = COc1ccc(OC)c(N2CCN(c3nc(N[C@@H]4CCCNC4)c(-c4nc5ccccc5s4)c(=O)[nH]3)CC2)c1 [Example 161]
7.85

----------
Listing: pIC50 of selected compounds
Target Of Assay: IRAK4 (Homo sapiens (Human), UniProt Q9NWZ3)
Assay Overview: IRAK4 kinase activity, IMAP fluorescence polarization assay
Format: biochemical
Test Settings: 100 μM ATP; read-out: IRAK4 IC50
Please keep in mind that pIC50 is minus log10 of the molar concentration; only the number is needed.

Value lookup for pIC50; key = CC(=O)NC1CCN(c2nc(N[C@@H]3CCCNC3)c(-c3ccc4ccccc4n3)c(=O)[nH]2)C1 (stereo partly drawn) [Example 165]
7.27

Value lookup for pIC50; key = O=c1[nH]c(N2CCN(c3cc(Cl)ccn3)CC2)nc(N[C@@H]2CCCNC2)c1-c1nc2ccccc2s1 [Example 145]
8.05

Value lookup for pIC50; key = O=c1[nH]c(N2CCOCC2)nc(N[C@@H]2CCCNC2)c1-c1nc(-c2cccc(C(F)(F)F)c2)cs1 [Example 200]
6.85
